For each record, write down the corresponding EC50.
test: Effect on quorum sensing-mediated genetic competence in Bacillus subtilis expressing srfA-lacZ fusion assessed as concentration required to show same activity at EC50 of ComXRO-E-2 pheromone after 5 hrs by beta-galactosidase assay
*1 amine or outer side, *2 acyl side, *3 side chain or, on linkers, in order; H or OH if unused. Where a SMILES comes first, the peptide text is derived from it. [ ]: non-standard residue; d: D form. X2 = CC(C)=CCC/C(C)=C/CC/C(C)=C/C[C@]12C[C@@H](C(=O)[*:2])N([*:1])[C@H]1Nc1ccccc12

[[record]]
molecule = "CC(C)=CCC/C(C)=C/C[C@]12C[C@@H](C(=O)N[C@@H](C)C(=O)O)N(C(=O)C(N)Cc3ccccc3)[C@H]1Nc1ccccc12 (single isomer, unassigned)"
assay_result = "60 nM"

[[record]]
molecule = "CC(C)=CCC/C(C)=C/C[C@]12C[C@@H](C(N)=O)N(C(=O)[C@@H](N)Cc3ccccc3)[C@H]1Nc1ccccc12"
assay_result = "> 300 nM"

[[record]]
molecule = "CC(C)=CCC/C(C)=C/C[C@]12C[C@@H](C(=O)N[C@@H](C)C(=O)O)N(C(=O)[C@@H](N)CC(C)C)[C@H]1Nc1ccccc12"
assay_result = "> 300 nM"

[[record]]
molecule = "CC[C@H](C)[C@H](NC(=O)CN)C(=O)N[C@@H](Cc1ccccc1)C(=O)N1[C@H]2Nc3ccccc3[C@@]2(C/C=C(\\C)CC/C=C(\\C)CCC=C(C)C)C[C@H]1C(=O)N[C@@H](CCC(=O)O)C(=O)N[C@@H](CCC(N)=O)C(=O)O (H-GIF[X2]EQ-OH)"
assay_result = "> 300 nM"

[[record]]
molecule = "CC(C)=CCC/C(C)=C/C[C@]12C[C@@H](C(=O)N[C@@H](C)C(=O)O)N(C(=O)[C@H](C)N)[C@H]1Nc1ccccc12"
assay_result = "> 300 nM"


Next:
The measured EC50 associated with "CC(C)=CCC/C(C)=C/C[C@]12C[C@@H](C(=O)N[C@@H](C)C(=O)O)N(C(=O)[C@@H](N)Cc3ccc(O)cc3)[C@H]1Nc1ccccc12" reads > 300 nM
